- measured on: UniProtKB P35372
- Sequence (P35372 whole entry, looked up): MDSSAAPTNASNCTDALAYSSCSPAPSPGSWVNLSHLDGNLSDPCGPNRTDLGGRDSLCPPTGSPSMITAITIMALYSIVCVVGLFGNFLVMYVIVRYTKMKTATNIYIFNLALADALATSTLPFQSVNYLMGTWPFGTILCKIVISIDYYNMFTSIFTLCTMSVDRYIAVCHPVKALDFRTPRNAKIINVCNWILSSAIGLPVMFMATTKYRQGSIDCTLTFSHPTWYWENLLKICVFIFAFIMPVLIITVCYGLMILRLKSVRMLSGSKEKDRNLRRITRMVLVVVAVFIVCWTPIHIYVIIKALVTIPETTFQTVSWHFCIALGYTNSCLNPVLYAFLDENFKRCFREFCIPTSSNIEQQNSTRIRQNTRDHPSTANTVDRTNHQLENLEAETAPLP
- assay info: mu opioid receptor agonists, OPRM1-only line – cell-based, luminescence, dose response, counter-screen for OPRM1-OPRD1 heterodimer activator project, late-stage follow-up (AID 651689)
- measurement conditions: luminescence activation counterscreen
The source made the active and inactive calls. No rule for the calls is given here.
Reply using exactly one outcome from true (1) (active), false (0) (inactive)

Recorded results for 10 molecules are shown here.
Query block: Record request — test call for CCOC(=O)C1(CCc2ccccc2)CCN(Cc2ccc(NC(C)=O)cc2)CC1
Result block: false (0)

Query block: Record request — test call for CCOC(=O)C1(CCc2ccccc2)CCN(Cc2ccccc2C)CC1
Result block: false (0)

Query block: Record request — test call for OCC1(CCc2ccccc2)CCN(Cc2cc(F)ccc2-n2cccn2)CC1
Result block: false (0)

Query block: Record request — test call for CCOC(=O)C1(CCOc2ccccc2)CCN(Cc2ccc(O)c(OC)c2)CC1
Result block: false (0)

Query block: Record request — test call for CCOC(=O)C1(CCc2ccccc2)CCN(Cc2ccc(OC(C)C)c(C#N)c2)CC1
Result block: false (0)

Query block: Record request — test call for CCOC(=O)C1(CC2CCCCO2)CCN(Cc2c(C)cc(C)cc2-n2cccn2)CC1 (stereo unspecified)
Result block: true (1)

Query block: Record request — test call for CCOC(=O)C1(CCOc2ccccc2)CCN(Cc2cccn2-c2cccnc2)CC1
Result block: false (0)

Query block: Record request — test call for CCOC(=O)C1(CCCc2ccccc2)CCN(Cc2cnn(C)c2)CC1
Result block: false (0)

Query block: Record request — test call for CCOC(=O)C1(Cc2ccccc2)CCN(Cc2cccn2-c2cccnc2)CC1
Result block: false (0)

Query block: Record request — test call for CCOC(=O)C1(CCc2ccccc2)CCN(Cc2cc(C)cc(C)c2)CC1
Result block: false (0)

Below: the item to evaluate.
Query block: Record request — test call for CCOC(=O)C1(Cc2ccccc2)CCN(Cc2cccn2-c2nccs2)CC1
Result block: false (0)
